Test system: 786-0
ASSAY SUMMARY: Growth inhibition of human 786-0 cells assessed tumor cell growth at 10^-5 M
Assay type: functional
Parameters: scale not given: the % may be the effect or the level left
Measured Activity accompanies every entry in the list below.
Report the value in % with no unit label.

Look over these answered cases.
INPUT SMILES | MEASUREMENT UNITS | Activity
C=CCn1cc(/C=C2\C(=O)N(c3c(Cl)cccc3Cl)c3ccccc32)c2ccccc21 | % | 86.2
CC1=NN(c2cccc(Cl)c2)C(=O)/C1=C\c1cn(S(=O)(=O)c2ccc(C)cc2)c2ccccc12 | % | 94.95
CN1C(=O)C(=Cc2coc3ccccc3c2=O)C(=O)N(C)C1=O | % | 95.26
O=C1/C(=C\c2cn(C(=O)c3ccccc3)c3ccccc23)c2ccccc2N1c1c(Cl)cccc1Cl | % | 90.7
Cc1ccc(S(=O)(=O)N2C(=O)/C(=C\c3cn(S(=O)(=O)c4ccc(C)cc4)c4ccccc34)c3ccccc32)cc1 | % | 71.2
CC1=NN(c2cccc(Cl)c2)C(=O)/C1=C\c1cn(C(=O)c2ccc(Cl)cc2)c2ccccc12 | % | 104.1
CC1=NN(c2cccc(Cl)c2)C(=O)/C1=C\C=C\c1ccccc1 | % | 35.48

Asked: Requested read-out: Activity. Entry: `CC1=NN(c2cccc(Cl)c2)C(=O)/C1=C\c1c[nH]c2ccccc12`
Given back: 98.46
